SYSTEM_NAME: Hepatocyte Growth Factor (HGF), human (human, UniProt P14210 32-728)
Sequence (P14210 32-728): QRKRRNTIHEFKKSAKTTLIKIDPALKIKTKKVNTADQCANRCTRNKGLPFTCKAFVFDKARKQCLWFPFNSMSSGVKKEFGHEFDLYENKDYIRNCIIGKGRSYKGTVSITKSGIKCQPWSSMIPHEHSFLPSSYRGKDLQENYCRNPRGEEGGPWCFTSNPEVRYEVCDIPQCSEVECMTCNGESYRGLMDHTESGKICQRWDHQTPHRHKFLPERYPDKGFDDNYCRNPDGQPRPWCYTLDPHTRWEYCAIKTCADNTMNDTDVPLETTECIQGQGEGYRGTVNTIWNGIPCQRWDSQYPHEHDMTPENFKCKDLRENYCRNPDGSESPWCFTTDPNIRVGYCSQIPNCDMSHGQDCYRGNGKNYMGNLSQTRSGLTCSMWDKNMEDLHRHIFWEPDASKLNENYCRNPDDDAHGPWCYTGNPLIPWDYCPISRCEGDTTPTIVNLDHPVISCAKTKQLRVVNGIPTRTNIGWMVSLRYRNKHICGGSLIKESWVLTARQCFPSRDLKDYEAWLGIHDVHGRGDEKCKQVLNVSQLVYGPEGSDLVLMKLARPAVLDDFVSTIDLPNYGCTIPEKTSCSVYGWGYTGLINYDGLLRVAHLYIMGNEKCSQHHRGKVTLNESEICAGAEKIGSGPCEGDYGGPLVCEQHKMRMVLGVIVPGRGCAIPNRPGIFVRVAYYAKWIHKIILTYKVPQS
TEST_PROTOCOL: ELISA
pEC50: −log10 of the molar value.
Each entry below carries its recorded pEC50.
READOUT: pEC50

BINDER	VALUE_REPORTED
HC 8/SLC 9 (antibody) chain 1: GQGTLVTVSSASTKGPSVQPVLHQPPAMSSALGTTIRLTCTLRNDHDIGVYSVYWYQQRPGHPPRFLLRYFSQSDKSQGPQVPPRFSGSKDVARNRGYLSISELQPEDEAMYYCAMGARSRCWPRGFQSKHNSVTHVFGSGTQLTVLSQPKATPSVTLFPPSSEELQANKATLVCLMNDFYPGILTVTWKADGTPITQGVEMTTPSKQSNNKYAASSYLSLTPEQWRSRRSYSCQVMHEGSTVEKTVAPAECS chain 2: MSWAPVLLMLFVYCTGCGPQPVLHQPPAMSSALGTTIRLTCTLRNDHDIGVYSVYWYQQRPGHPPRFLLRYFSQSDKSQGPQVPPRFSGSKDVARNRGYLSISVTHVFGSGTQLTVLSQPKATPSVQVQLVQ	10.31
HC 5/SLC 2 (antibody) chain 1: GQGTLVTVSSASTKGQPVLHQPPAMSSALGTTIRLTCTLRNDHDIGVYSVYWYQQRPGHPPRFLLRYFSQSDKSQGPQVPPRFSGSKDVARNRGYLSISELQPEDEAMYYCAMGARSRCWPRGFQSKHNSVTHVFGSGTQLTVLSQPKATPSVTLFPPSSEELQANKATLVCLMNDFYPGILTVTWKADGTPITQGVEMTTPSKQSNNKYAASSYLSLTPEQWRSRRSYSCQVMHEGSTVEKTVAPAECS chain 2: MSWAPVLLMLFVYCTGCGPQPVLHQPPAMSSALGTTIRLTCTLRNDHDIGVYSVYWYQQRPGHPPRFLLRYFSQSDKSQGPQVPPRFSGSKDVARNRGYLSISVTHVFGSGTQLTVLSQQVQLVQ	10.29
HC 5/SLC 5 (antibody) chain 1: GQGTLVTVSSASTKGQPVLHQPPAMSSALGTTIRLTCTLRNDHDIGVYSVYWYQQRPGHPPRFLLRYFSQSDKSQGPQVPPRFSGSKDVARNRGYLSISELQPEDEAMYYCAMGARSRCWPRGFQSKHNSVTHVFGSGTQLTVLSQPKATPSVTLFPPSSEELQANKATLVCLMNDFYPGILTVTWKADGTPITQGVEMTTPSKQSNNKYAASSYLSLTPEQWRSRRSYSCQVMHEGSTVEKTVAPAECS chain 2: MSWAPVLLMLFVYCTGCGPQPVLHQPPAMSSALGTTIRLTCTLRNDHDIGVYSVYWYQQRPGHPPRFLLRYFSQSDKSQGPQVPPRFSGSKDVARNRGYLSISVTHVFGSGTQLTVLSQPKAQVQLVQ	10.20
HC 6/SLC 5 (antibody) chain 1: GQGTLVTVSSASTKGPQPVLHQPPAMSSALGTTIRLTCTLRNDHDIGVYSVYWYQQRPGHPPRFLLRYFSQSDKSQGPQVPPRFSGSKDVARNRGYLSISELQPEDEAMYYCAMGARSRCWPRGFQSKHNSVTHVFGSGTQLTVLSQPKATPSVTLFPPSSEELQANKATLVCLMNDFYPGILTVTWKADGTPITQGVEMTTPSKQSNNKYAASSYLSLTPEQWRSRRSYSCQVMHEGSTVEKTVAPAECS chain 2: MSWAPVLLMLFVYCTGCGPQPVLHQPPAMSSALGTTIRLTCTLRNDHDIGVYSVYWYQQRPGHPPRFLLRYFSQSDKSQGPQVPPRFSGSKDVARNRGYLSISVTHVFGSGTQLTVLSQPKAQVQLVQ	10.18

This collection of values is drawn from patent US20150045540A1.
